# TEST SYSTEM: CTX-M-14 β-lactamase (Klebsiella pneumoniae)
# Sequence (A0A2S1JJX2 entry or part of it): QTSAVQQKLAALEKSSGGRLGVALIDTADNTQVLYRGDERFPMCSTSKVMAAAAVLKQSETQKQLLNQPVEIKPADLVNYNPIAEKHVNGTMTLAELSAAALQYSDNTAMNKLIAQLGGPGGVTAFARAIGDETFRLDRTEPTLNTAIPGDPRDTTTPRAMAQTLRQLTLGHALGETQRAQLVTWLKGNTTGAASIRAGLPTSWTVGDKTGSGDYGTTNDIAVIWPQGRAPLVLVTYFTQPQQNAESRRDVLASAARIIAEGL
# PROTOCOL DETAILS: crystal structure ([…] Å, soaking); also purified enzyme inhibition assay, cefotaxime hydrolysis
# Type: biochemical
ASSAY METRIC: pIC50
Formally, pIC50 is defined as -log10 of the concentration c, with c in mol/L.

# return pIC50 of CC(C)C[C@H](NC(=O)CNC(=O)c1cc(Cl)ccc1Cl)B(O)O [Ixazomib] (system: CTX-M-14 β-lactamase (Klebsiella pneumoniae))
4.89
